System: Leishmania infantum
Assay: Antileishmanial activity against promastigote form of Leishmania infantum MCAN_UY_2015_gPL8 isolate assessed as decrease in parasite viability measured after 72 hrs by resazurin assay
pIC50: −log10 of the molar value.
The reader will find reported pIC50 values listed item by item below.
Measured attribute: pIC50

>>> assay_result("CC[C@H](C)C(=O)O[C@H]1C[C@@H](C)C=C2C=C[C@H](C)[C@H](CC[C@@H]3C[C@@H](O)CC(=O)O3)[C@H]21")
4.60
>>> assay_result("C[C@@H]1[C@H](O)[C@@H](C)/C=C/C=C/C=C/C=C/C=C/C=C/C=C/[C@H](O[C@@H]2O[C@H](C)[C@@H](O)[C@H](N)[C@@H]2O)C[C@@H]2O[C@](O)(C[C@@H](O)C[C@@H](O)[C@H](O)CC[C@@H](O)C[C@@H](O)CC(=O)O[C@H]1C)C[C@H](O)[C@H]2C(=O)O")
4.61
>>> assay_result("CC1CS(=O)(=O)CCN1/N=C/c1ccc([N+](=O)[O-])o1 (centres undefined)")
5.22
>>> assay_result("CCCCCCCCCCCCCCCCOP(=O)([O-])OCC[N+](C)(C)C")
5.39
